Target: UniProt O60678
Sequence (O60678 with tags, fused parts or gaps): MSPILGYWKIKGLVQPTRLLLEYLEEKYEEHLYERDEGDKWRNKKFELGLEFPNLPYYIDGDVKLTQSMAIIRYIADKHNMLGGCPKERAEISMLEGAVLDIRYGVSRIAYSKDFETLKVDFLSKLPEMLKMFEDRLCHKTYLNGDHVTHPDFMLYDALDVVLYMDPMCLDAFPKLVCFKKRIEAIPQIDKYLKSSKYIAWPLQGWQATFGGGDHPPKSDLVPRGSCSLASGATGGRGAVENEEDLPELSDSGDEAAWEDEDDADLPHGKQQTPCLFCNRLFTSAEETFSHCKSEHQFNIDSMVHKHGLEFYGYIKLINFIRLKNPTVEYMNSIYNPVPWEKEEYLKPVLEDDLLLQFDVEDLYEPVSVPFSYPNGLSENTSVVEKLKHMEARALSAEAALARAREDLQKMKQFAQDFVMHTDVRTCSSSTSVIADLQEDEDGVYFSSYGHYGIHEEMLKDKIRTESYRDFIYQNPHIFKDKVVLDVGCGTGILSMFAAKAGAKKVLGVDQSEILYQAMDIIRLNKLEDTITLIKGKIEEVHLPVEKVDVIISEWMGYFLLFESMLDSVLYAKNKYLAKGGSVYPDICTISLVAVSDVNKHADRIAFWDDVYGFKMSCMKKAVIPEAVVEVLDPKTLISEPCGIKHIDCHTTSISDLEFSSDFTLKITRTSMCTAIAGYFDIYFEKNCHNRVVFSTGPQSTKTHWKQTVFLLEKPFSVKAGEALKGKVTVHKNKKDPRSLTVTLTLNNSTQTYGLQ
pIC50: −log10 of the molar value.
quantity name: pIC50

Answered examples (3):
>>> test_value("COc1cc(-c2n[nH]cc2CN(C)CCN)ccc1F")
"5.00 to 5.52"
>>> test_value("CCn1cc(CN(C)CCNC)c(-c2ccc(F)cc2)n1")
"< 5.00"
>>> test_value("CNCCN(C)Cc1c[nH]nc1-c1ccc(OC)c(F)c1")
"5.00 to 5.52"

Problem: Suppose we examine the molecule `Cc1ccc(Cl)c(-c2n[nH]cc2CN(C)CCN)c1` ; what pIC50 value has been reported?
Solution: < 5.00

Problem: Query `CN(CCN)Cc1c[nH]nc1-c1ccc(C#N)cc1` next
Solution: 5.00 to 5.52

Where do the numbers come from? From patent US9346761B2.
